Assay: Phase 1b study in female adults with cystitis, plasma PK
Type: in vivo, human
Settings: female, human, plasma, intravenous, 200 mg, plasma, Day 1, IV_PO300; read-out: Cmax, Mean
READOUT LABEL: Cmax (ng/mL)
Give bare numbers, in ng/mL.

Lab note: CN(C)c1cc(CNCC(C)(C)C)c(O)c2c1C[C@H]1C[C@H]3[C@H](N(C)C)C(O)=C(C(N)=O)C(=O)[C@@]3(O)C(O)=C1C2=O gave Cmax of 2160

###

Assay: Phase 1b study in female adults with cystitis, plasma PK
Assay type: in vivo, human
Conditions: female, human, plasma, oral, 450 mg, plasma, Day 5, PO450; read-out: AUC(0-24 hrs), Mean
Method: According to the study design, a randomized (1:1:1), open-label, parallel designed Phase 1b study comparing 3 dosing regimens of Compound 1 (9-[(2,2-dimethyl-propyl amino)-methyl-minocycline) in the treatment of female adults with cystitis was conducted. […] Blood samples were collected and analyzed for Compound 1 concentration at the following times. […]
READOUT LABEL: AUC(0-t)
Please give the number followed by its unit.

Lab note: CN(C)c1cc(CNCC(C)(C)C)c(O)c2c1C[C@H]1C[C@H]3[C@H](N(C)C)C(O)=C(C(N)=O)C(=O)[C@@]3(O)C(O)=C1C2=O [Compound 1] gave AUC(0-t) of 19800 ng·h/mL

###

Tested on: K. oxytoca
Assay: In vitro MIC, 2010 surveillance isolates
Format: cell-based
Settings: Europe; N=158
READOUT LABEL: MIC90 (µg/mL)
Give bare numbers, in µg/mL.

Completed entries (count: 5):
{"columns": ["COMPOUND", "MEASURE UNIT", "MIC90"],
 "data": [
  ["NCC[C@H](O)C(=O)N[C@@H]1C[C@H](N)[C@@H](O[C@H]2O[C@H](CN)[C@@H](O)[C@H](O)[C@H]2O)[C@H](O)[C@H]1O[C@H]1O[C@H](CO)[C@@H](O)[C@H](N)[C@H]1O [Amikacin]", "µg/mL", 2],
  ["CO/N=C(\\C(=O)N[C@@H]1C(=O)N2C(C(=O)[O-])=C(C[N+]3(C)CCCC3)CS[C@H]12)c1csc(N)n1 [Cefepime]", "µg/mL", 1],
  ["CN(C)c1cc(NC(=O)CNC(C)(C)C)c(O)c2c1C[C@H]1C[C@H]3[C@H](N(C)C)C(O)=C(C(N)=O)C(=O)[C@@]3(O)C(O)=C1C2=O [Tigecycline]", "µg/mL", 0.5],
  ["C[C@@H](O)[C@H]1C(=O)N2C(C(=O)O)=C(SCCN=CN)C[C@H]12 [Imipenem]", "µg/mL", 0.25],
  ["CN(C)c1cc(CNCC(C)(C)C)c(O)c2c1C[C@H]1C[C@H]3[C@H](N(C)C)C(O)=C(C(N)=O)C(=O)[C@@]3(O)C(O)=C1C2=O [Compound 1]", "µg/mL", 2]
]}

For the next question, use this compound.
Lab note: C[C@H]1c2cccc(O)c2C(=O)C2=C(O)[C@]3(O)C(=O)C(C(N)=O)=C(O)[C@@H](N(C)C)[C@@H]3[C@@H](O)[C@@H]21 [Doxycycline] gave MIC90 of 2

###

Assay: Phase 1b study in female adults with cystitis, plasma PK
Type: in vivo, human
Conditions: female, human, plasma, oral, 450 mg, plasma, Day 5, PO450; read-out: Tmax, Mean
READOUT LABEL: Tmax (h)
Numbers only, in h.

Lab note: CN(C)c1cc(CNCC(C)(C)C)c(O)c2c1C[C@H]1C[C@H]3[C@H](N(C)C)C(O)=C(C(N)=O)C(=O)[C@@]3(O)C(O)=C1C2=O gave Tmax of 3.36
